Each entry below lists one item and its recorded Kd value.
Molecular target: T1, EsCas13d, nuclease-dead (Eubacterium siraeum, UniProt B0MS50, R295A;H300A;R849A;H854A)
T1 sequence: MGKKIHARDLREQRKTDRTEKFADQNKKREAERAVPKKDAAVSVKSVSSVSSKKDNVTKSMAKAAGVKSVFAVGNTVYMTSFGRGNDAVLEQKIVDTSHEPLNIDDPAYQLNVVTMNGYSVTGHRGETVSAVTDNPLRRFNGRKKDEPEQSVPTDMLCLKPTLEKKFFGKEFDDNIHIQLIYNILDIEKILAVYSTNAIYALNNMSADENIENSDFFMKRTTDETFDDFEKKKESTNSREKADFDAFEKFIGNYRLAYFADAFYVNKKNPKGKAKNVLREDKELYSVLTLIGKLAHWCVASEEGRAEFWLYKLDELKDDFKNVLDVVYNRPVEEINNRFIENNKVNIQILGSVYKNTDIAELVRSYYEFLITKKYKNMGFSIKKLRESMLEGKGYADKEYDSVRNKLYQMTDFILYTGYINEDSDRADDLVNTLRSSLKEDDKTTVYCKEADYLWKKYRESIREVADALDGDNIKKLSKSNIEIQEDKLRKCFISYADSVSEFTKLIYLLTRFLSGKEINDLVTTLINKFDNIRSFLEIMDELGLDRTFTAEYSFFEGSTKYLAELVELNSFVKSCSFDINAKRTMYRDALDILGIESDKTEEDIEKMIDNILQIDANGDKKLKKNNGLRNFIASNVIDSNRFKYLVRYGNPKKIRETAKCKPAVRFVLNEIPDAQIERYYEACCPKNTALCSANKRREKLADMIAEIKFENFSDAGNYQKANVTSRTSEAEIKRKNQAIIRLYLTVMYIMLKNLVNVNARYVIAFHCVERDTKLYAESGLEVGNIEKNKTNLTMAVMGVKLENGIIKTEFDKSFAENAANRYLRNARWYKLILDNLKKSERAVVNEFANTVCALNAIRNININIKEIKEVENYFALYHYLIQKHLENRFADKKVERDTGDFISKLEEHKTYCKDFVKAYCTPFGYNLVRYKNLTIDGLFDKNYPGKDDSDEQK
Assay: crRNA (strand 1, pre-loaded); Mg2+; 40 mM Tris-HCl pH 7.5, 150 mM NaCl, 6 mM MgCl2, 1 mM DTT, 0.1% Tween-20, 0.2 mg/ml BSA; 25 C; 10 min per concentration, then washed
Details: tags: His6-TwinStrep-SUMO cleaved; N-terminal SNAP kept (SNAP-Surface 488); label: 3' end held by stalled T7 RNA polymerase

binder | Kd, nM
target 1 insU 3' of 14,insA 3' of 7 (mixed) RNA 1: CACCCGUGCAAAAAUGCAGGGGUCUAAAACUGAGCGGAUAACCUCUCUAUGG RNA 2: GGGAAUGGAUCCACAUCUACGAAUUCGUACCAUAGAGAUGGUUAUCACGCUCACCGAGAUCGGAAGAGCACACGU | 32.2
target 2 MT 5'PFS GUG 3'PFS ACA (mixed) RNA 1: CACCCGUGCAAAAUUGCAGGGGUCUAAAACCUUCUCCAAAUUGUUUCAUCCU RNA 2: GGGAAUGGAUCCACAUCUACGAAUUCGUGAGGAUGAAACAAUUUGGAGAAGACAAGAUCGGAAGAGCACACGU | 10.3
target 1 insG 3' of 14,insU 3' of 1 (mixed) RNA 1: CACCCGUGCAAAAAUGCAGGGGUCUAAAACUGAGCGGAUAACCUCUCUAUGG RNA 2: GGGAAUGGAUCCACAUCUACGAAUUCGUACCAUAGAGAGGGUUAUCCGCUCAUCCGAGAUCGGAAGAGCACACGU | 12.3
target 1 G5C,C6G (mixed) RNA 1: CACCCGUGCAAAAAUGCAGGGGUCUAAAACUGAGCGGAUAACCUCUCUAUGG RNA 2: GGGAAUGGAUCCACAUCUACGAAUUCGUACCAUAGAGAGGUUAUCGCCUCACCGAGAUCGGAAGAGCACACGU | 10.9
target 1 MT 5'PFS GGG 3'PFS UAG (mixed) RNA 1: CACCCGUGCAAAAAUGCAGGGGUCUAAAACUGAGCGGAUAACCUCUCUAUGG RNA 2: GGGAAUGGAUCCACAUCUACGAAUUCGGGCCAUAGAGAGGUUAUCCGCUCAUAGAGAUCGGAAGAGCACACGU | 16.1
target 1 C4A,C7G (mixed) RNA 1: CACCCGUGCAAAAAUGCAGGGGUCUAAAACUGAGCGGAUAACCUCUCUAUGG RNA 2: GGGAAUGGAUCCACAUCUACGAAUUCGUACCAUAGAGAGGUUAUGCGAUCACCGAGAUCGGAAGAGCACACGU | 9.6
target 2 MT 5'PFS GCU 3'PFS ACA (mixed) RNA 1: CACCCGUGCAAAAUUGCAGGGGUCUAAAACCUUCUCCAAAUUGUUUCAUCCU RNA 2: GGGAAUGGAUCCACAUCUACGAAUUCGCUAGGAUGAAACAAUUUGGAGAAGACAAGAUCGGAAGAGCACACGU | 15
target 2 MT 5'PFS CCU 3'PFS UCC (mixed) RNA 1: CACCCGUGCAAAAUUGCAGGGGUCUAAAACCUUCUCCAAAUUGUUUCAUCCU RNA 2: GGGAAUGGAUCCACAUCUACGAAUUCCCUAGGAUGAAACAAUUUGGAGAAGUCCAGAUCGGAAGAGCACACGU | 1.74
target 2 MT 5'PFS CAU 3'PFS CCA (mixed) RNA 1: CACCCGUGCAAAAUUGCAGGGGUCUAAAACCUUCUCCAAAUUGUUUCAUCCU RNA 2: GGGAAUGGAUCCACAUCUACGAAUUCCAUAGGAUGAAACAAUUUGGAGAAGCCAAGAUCGGAAGAGCACACGU | 11.5
target 1 insU 3' of 7,insA 3' of 7 (mixed) RNA 1: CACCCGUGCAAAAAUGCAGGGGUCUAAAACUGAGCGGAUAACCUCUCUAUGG RNA 2: GGGAAUGGAUCCACAUCUACGAAUUCGUACCAUAGAGAGGUUAUCUACGCUCACCGAGAUCGGAAGAGCACACGU | 7.75
target 1 del1,del3 (mixed) RNA 1: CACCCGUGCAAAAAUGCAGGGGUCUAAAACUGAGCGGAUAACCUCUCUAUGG RNA 2: GGGAAUGGAUCCACAUCUACGAAUUCGUACCAUAGAGAGGUUAUCCGCCCCGAGAUCGGAAGAGCACACGU | 45
target 1 MT 5'PFS GUA 3'PFS CCC (mixed) RNA 1: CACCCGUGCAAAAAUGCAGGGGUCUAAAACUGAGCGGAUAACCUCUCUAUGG RNA 2: GGGAAUGGAUCCACAUCUACGAAUUCGUACCAUAGAGAGGUUAUCCGCUCACCCAGAUCGGAAGAGCACACGU | 12.6
target 1 MT 5'PFS GUG 3'PFS UAA (mixed) RNA 1: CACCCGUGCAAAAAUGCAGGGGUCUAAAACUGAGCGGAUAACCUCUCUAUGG RNA 2: GGGAAUGGAUCCACAUCUACGAAUUCGUGCCAUAGAGAGGUUAUCCGCUCAUAAAGAUCGGAAGAGCACACGU | 14.8
target 1 U3A,G5A (mixed) RNA 1: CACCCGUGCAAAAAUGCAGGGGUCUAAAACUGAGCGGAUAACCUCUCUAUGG RNA 2: GGGAAUGGAUCCACAUCUACGAAUUCGUACCAUAGAGAGGUUAUCCACACACCGAGAUCGGAAGAGCACACGU | 53
target 2 MT 5'PFS UUU 3'PFS CAG (mixed) RNA 1: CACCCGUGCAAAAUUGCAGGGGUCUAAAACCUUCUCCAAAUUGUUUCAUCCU RNA 2: GGGAAUGGAUCCACAUCUACGAAUUCUUUAGGAUGAAACAAUUUGGAGAAGCAGAGAUCGGAAGAGCACACGU | 5
